Target chain: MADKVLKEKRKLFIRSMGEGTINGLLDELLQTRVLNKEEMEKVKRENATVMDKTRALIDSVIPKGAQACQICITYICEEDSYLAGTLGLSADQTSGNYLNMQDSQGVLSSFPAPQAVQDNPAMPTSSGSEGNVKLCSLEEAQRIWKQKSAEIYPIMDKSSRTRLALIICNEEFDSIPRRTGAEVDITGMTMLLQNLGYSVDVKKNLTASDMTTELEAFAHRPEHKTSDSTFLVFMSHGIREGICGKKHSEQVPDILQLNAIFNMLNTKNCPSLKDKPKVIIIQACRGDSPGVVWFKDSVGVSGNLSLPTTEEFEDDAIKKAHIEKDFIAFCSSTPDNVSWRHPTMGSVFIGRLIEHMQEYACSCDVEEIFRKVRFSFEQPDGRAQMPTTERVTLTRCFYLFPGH
pIC50: −log10 of the molar value.

| cpd.smiles | pIC50 |
| --- | --- |
| Cc1ccc2c(c1)ncn2CCNC(=O)C[C@H](C(=O)N[C@H](C=O)CC(=O)O)C(C)C | 7.82 |
| CC(C)[C@H](CC(=O)NCCc1ccnc2ccccc12)C(=O)N[C@H](C=O)CC(=O)O | 8.32 |
| Cc1nc2ccccc2n1CCNC(=O)C[C@H](C(=O)N[C@H](C=O)CC(=O)O)C(C)C | 7.62 |
| CC(C)[C@H](CC(=O)N(CCOc1ccccc1)C(C)C)C(=O)N[C@H](C=O)CC(=O)O | 6.23 |
| CC(C)[C@H](CC(=O)NCCc1c[nH]c2ccc(F)cc12)C(=O)N[C@H](C=O)CC(=O)O | 7.43 |
| CC(C)[C@H](CC(=O)NCCc1cncc2ccccc12)C(=O)N[C@H](C=O)CC(=O)O | 7.92 |

###

Catalogue of compounds with associated Selectivity ratio
# test.protocol: Selectivity ratio of human ICE to caspase 3
endpoint.name: Selectivity ratio

| compound | endpoint.name | test.value |
| --- | --- | --- |
| Cc1c(CCNC(=O)C[C@H](C(=O)N[C@H](C=O)CC(=O)O)C(C)C)c2ccccc2n1C | Selectivity ratio | > 200 |
| CC(C)[C@H](CC(=O)NCCc1c[nH]c2ccc(F)cc12)C(=O)N[C@H](C=O)CC(=O)O | Selectivity ratio | > 200 |
| CC(C)[C@H](CC(=O)N1CCCC(Oc2ccccc2)C1)C(=O)N[C@H](C=O)CC(=O)O (stereo not given in full) | Selectivity ratio | > 200 |
| Cc1ccc2c(c1)ncn2CCNC(=O)C[C@H](C(=O)N[C@H](C=O)CC(=O)O)C(C)C | Selectivity ratio | > 200 |
| CCOC1OC(=O)C[C@@H]1NC(=O)[C@@H](CC(=O)NCCn1c(C)nc2ccccc21)C(C)C (stereo not given in full) | Selectivity ratio | > 200 |

###

Listed next: entries and their corresponding pIC50.
Protein target, amino acids: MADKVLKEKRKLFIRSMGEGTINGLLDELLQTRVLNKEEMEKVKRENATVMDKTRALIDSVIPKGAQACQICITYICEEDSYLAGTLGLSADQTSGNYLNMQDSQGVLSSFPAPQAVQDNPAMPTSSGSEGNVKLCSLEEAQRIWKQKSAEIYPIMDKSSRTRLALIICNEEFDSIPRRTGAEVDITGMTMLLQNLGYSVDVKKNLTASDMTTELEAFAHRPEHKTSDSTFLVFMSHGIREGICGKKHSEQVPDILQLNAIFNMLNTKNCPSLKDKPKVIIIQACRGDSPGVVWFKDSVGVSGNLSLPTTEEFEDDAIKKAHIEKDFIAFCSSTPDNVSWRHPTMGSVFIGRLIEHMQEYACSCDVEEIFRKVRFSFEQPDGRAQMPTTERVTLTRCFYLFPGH
pIC50: −log10 of the molar value.

| compound | pIC50 |
| --- | --- |
| CC(C)[C@H](CC(=O)NCCn1cnc2ccccc21)C(=O)N[C@H](C=O)CC(=O)O | 7.47 |
| CC(C)[C@H](CC(=O)NCCc1cccc2nc(OCCN(C)C)ccc12)C(=O)N[C@H](C=O)CC(=O)O | 6.99 |
| CC(C)[C@H](CC(=O)NCCOc1ccccc1)C(=O)N[C@H](C=O)CC(=O)O | 6.27 |
| O=C[C@H](CC(=O)O)NC(=O)[C@@H]1CCCN2C(=O)CC[C@H](NC(=O)c3nccc4ccccc34)C(=O)N12 [VRT-18858] | 8.47 |
| CC(C)[C@H](CC(=O)NCCc1cccc2ccccc12)C(=O)N[C@H](C=O)CC(=O)O | 8.24 |
| CC(=O)N[C@@H](Cc1ccc(O)cc1)C(=O)N[C@H](C(=O)N[C@@H](C)C(=O)N[C@H](C=O)CC(=O)O)C(C)C | 7.77 |
| Cc1cc2nc(C)n(CCNC(=O)C[C@H](C(=O)N[C@H](C=O)CC(=O)O)C(C)C)c2cc1C | 8.04 |
| CC(C)[C@H](CC(=O)NCCc1cc(N(C)C)nc2ccccc12)C(=O)N[C@H](C=O)CC(=O)O | 8.44 |
